# credit: patent EP0972764A1

target: S2 (Serotonine) receptors (Rattus norvegicus, UniProt P14842); construct: preparation of rat brain membrane enriched in D2 (Dopamine) or S2 (Serotonine) receptors; test: In vitro inhibition of 3H-spiperone binding, S2 assay (rat brain membranes); settings: inhibition of ^3H-spiperone binding, S2 assay; tested in its racemic form
Sequence (P14842 whole entry): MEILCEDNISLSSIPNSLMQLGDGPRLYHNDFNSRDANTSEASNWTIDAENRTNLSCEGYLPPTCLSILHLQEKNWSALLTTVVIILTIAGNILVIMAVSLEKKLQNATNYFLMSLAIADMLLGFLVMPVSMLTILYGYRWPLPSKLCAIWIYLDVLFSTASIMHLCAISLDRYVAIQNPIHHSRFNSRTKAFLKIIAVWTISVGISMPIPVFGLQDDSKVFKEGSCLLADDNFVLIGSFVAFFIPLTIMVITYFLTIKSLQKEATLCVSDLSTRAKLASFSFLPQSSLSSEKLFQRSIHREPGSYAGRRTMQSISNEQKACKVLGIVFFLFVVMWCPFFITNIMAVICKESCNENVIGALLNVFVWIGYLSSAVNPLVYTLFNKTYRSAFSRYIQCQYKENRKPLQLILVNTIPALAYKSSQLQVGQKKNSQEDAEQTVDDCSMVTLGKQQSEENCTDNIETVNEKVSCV
Property name: IC50 (µM)
Record the value in µM, omitting the unit from your answer.

Which IC50 is listed for OC(CCNCc1ccccc1)c1ccc(F)cc1Br (racemic) ? 18.7
